// reported GI50 for each item listed
System: HL-60
assayProcedure: NCI tumour cell line growth inhibition, 48 h
The source made the active and inactive calls. Rule as the data show it: active = GI50 up to about 1.1 µM and inactive = higher.

Below, each entry is followed by its recorded GI50 result.
CC(C)(Oc1ccc(C(=O)c2ccc(Cl)cc2)cc1Cl)C(=O)N1CCN(CCO)CC1 ... 3.53 µM (inactive)
O=C(n1c(=O)n(-c2ccc([N+](=O)[O-])cc2)c(=O)n1C(=O)C(Cl)(Cl)Cl)C(Cl)(Cl)Cl ... > 100 µM (inactive)
CC(C)(C)c1cc(-c2ccc(-c3cc(C(C)(C)C)c(O)c(C(C)(C)C)c3)cc2)cc(C(C)(C)C)c1O ... > 100 µM (inactive)

Now look at this entry.
Prompt: Suppose we examine the compound `CCCCOC(=O)NC(Nc1cccc(C(F)(F)F)c1)(C(F)(F)F)C(F)(F)F` ; what GI50 value has been reported?
Response: 23.4 µM (inactive)

----------
// reported GI50 for each item listed
System: ACHN
assayProcedure: NCI tumour cell line growth inhibition, 48 h
Activity calls are given as the source filed them. Cut-off read from the data, not from the text of the source: active = GI50 up to about 1.1 µM and inactive = higher.

CNC(=S)NN=C1NCCCN1 ... > 100 µM (inactive)
N#Cc1sc2nc3c(c(-c4ccccc4)c2c1N)CCCC3 ... 76.9 µM (inactive)
Cc1nc2sccn2c1C(=O)N/N=C1\SCC(=O)N1C ... > 100 µM (inactive)
Cc1ccc(C(=O)/C=C2\Nc3ccccc3SC2=O)c(C)c1 ... 28.6 µM (inactive)
N#CC(=N)c1ncn(-c2ccccc2N)c1N ... > 100 µM (inactive)

Prompt: Suppose we examine the compound O=c1[nH]cnc2c1ncn2C1SC(CO)C(O)C1O (centres undefined) ; what GI50 value has been reported?
Response: > 100 µM (inactive)

Prompt: Suppose we examine the compound `CCOC(=O)C(Cc1ccc2c(c1)CCC2)Cc1ccc2c(c1)CCC2` ; what GI50 value has been reported?
Response: > 100 µM (inactive)

Prompt: Suppose we examine the compound `C1CCC2(CC1)O[C@@H]1[C@@H](O2)[C@@H](O[C@H]2O[C@@H]3COC4(CCCCC4)O[C@H]3[C@@H]3OC4(CCCCC4)O[C@@H]23)O[C@@H]2COC3(CCCCC3)O[C@@H]12` ; what GI50 value has been reported?
Response: > 100 µM (inactive)

Prompt: Suppose we examine the compound `CC1=CC[C@@H]2[C@@H](CC[C@@]2(C)O)C(C)(C)[C@H]1CC[C@@H]1[C@@]2(C)CC[C@@H](O)C(C)(C)O[C@@H]2CC[C@]1(C)O` ; what GI50 value has been reported?
Response: 23.2 µM (inactive)

----------
Tested on: OVCAR-5
assayProcedure: NCI tumour cell line growth inhibition, 48 h
Active and inactive are the calls of the source. Cut-off read from the data, not from the text of the source: active = GI50 up to about 1.1 µM and inactive = higher.
// reported GI50 for each item listed

Cc1nc2c(Br)cc(Br)cc2c(=O)n1-c1ccccc1NC1OC(CO)C(O)C(O)C1O (stereo not drawn) ... > 100 µM (inactive)
CC[S+]([O-])c1c2cc(OC)ccc2nc2ccc(OC)cc12 (stereo not drawn) ... 17.8 µM (inactive)
CC1=NN(C(=O)CC(=O)NC(=O)CC(=O)Nc2ccccc2F)C(=O)C1/N=N/c1ccc([N+](=O)[O-])cc1 (stereo not drawn) ... 97.7 µM (inactive)

Prompt: Suppose we examine the compound `OCCCN=C1CCCCC1` ; what GI50 value has been reported?
Response: > 100 µM (inactive)

Prompt: Suppose we examine the compound `O=c1c2c(-c3ccccc3)onc2n(-c2ccccc2)c(=O)n1-c1ccccc1` ; what GI50 value has been reported?
Response: 16.4 µM (inactive)

Prompt: Suppose we examine the compound `N#Cc1c2c(c(Nc3ccc(Cl)cc3)n3c1nc1ccccc13)CCCC2` ; what GI50 value has been reported?
Response: > 100 µM (inactive)

Prompt: Suppose we examine the compound `O=C(/C=C/c1ccccc1Cl)c1cccc2ccccc12` ; what GI50 value has been reported?
Response: 13.6 µM (inactive)

Prompt: Suppose we examine the compound COc1ccc2c(c1)N(C(C)=O)CN1C(=O)CCC21 (stereo not drawn) ; what GI50 value has been reported?
Response: > 100 µM (inactive)
